# MEASUREMENT_TARGET: human CLEC12A expressed on cells (human) (UniProt Q5QGZ9)
# Sequence (Q5QGZ9 whole entry): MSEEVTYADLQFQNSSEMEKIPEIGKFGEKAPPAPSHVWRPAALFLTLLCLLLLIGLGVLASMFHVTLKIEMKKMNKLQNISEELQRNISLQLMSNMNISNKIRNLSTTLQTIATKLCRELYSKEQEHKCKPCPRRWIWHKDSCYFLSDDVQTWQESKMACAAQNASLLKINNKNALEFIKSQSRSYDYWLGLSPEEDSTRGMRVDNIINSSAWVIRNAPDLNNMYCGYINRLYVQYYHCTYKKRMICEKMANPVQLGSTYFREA
# TEST_DETAILS: flow cytometry, HL60 cells
MEASURED_PROPERTY: Max binding MFI (MFI)
Respond numerically; units are MFI and should not be typed.

>>> experimental_result("AB0189 (bispecific antibody, part only; not given: Fc, unrelated binder arm, linkers, not shown: another chain or arm of the molecule; a dimerising Fc or GST; small tags and cut ends) scFv: DIKMTQSPSSLSASVGDRVTITCKASQDIYNYLSWFQQKPGKAPKPLIYRANILVSGVPSRFSGSGSGQDYTLTISSLQPEDIATYYCLQFDAFPFTFGCGTKLEIKGGGGSGGGGSGGGGSGGGGSEVQLVESGGGVVQPGGSLRLSCAASGFTFNAFGMHWVRQAPGKCLEWVAFISSGSTSIYYANTVKGRFTISRDNSKNTLYLQMNSLRAEDTAVYYCARDGYPTGGAMDYWGQGTSVTVSS")
420
>>> experimental_result("AB0195 (bispecific antibody, part only; not given: Fc and unrelated binding arm, not shown: another chain or arm of the molecule; a dimerising Fc or GST) scFv: EVQLVESGGGVVQPGGSLRLSCAASGFTFNAFGMHWVRQAPGKCLEWVAFISSGSTSIYYANTVKGRFTISRDNSKNTLYLQMNSLRAEDTAVYYCARDGYPTGGAMDYWGQGTSVTVSSGGGGSGGGGSGGGGSGGGGSDIKMTQSPSSLSASVGDRVTITCKASQDIYNYLSWFQQKPGKAPKPLIYRANILVSGVPSRFSGSGSGQDYTLTISSLQPEDIATYYCLQFDAFPFTFGCGTKLEIK")
551

Enquiry: Entry AB0185 (bispecific antibody, part only; not given: Fc, unrelated binder arm, linkers, not shown: another chain or arm of the molecule; a dimerising Fc or GST; small tags and cut ends) scFv: DIQMTQSPSSLSASVGDRVTITCKASQDIYNYLSWFQQKPGKAPKPLIYRANILVSGVPSRFSGSGSGQDYTFTISSLQPEDIATYYCLQFDAFPFTFGCGTKLEIKGGGGSGGGGSGGGGSGGGGSEVQLVESGGGVVQPGGSLRLSCAASGFTFNSFGMHWVRQAPGKCLEWVAFISSGSTSIYYANTVKGRFTISRDNSKNTLYLQMNSLRAEDTAVYYCARDGYPTGGAMDYWGQGTSVTVSS has what Max binding MFI?
Return: 372
